TARGET OR SYSTEM: Chymase, from human skin (Homo sapiens, UniProt P23946)
Sequence (P23946 22-247): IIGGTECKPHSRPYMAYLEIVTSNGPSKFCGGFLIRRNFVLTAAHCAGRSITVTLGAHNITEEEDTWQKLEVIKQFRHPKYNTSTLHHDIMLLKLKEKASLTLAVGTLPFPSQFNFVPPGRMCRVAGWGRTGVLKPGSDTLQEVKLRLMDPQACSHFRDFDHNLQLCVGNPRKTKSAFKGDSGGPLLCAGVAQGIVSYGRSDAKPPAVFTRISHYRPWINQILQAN
TEST DETAILS: Enzymatic assay, chymase
Where a SMILES comes first, the peptide text is derived from it.
PARAMETER: Chymase at 100 μM % (%)
Answers are plain numbers, in %.

COMPOUND	PARAMETER	RECORDED MEASUREMENT
CCCC[C@@H]1NC(=O)[C@@H]2CCCN2C(=O)[C@H]2CCCN2C(=O)[C@H](CCC(N)=O)NC(=O)[C@@H]2CSSC[C@H](NC1=O)C(=O)N[C@@H]([C@@H](C)O)C(=O)N[C@@H](C)C(=O)N[C@@H](CO)C(=O)N[C@@H]([C@@H](C)CC)C(=O)N1CCC[C@H]1C(=O)N1CCC[C@H]1C(=O)N[C@@H](CCC(N)=O)C(=O)N2 [Ex. 91] (HELM PEPTIDE1{[Nle].C.T.A.S.I.P.P.Q.C.Q.[dP].P}$PEPTIDE1,PEPTIDE1,2:R3-10:R3|PEPTIDE1,PEPTIDE1,1:R1-13:R2$$$V2.0)	Chymase at 100 μM %	4.7

Task item: Under Chymase, from human skin (Homo sapiens, UniProt P23946): Chymase at 100 μM % value of CC[C@H](C)[C@@H]1NC(=O)[C@H](C)NC(=O)[C@@H]2CCCN2C(=O)[C@H](CC(=O)O)NC(=O)[C@H](CO)NC(=O)[C@H](CCCCN)NC(=O)[C@H]([C@@H](C)O)NC(=O)[C@@H]2CSSC[C@H](NC1=O)C(=O)N[C@@H](CCCNC(=N)N)C(=O)N1CCC[C@@H]1C(=O)N1CCC[C@H]1C(=O)N[C@@H]([C@@H](C)CC)C(=O)N2 [Ex. 14] (HELM PEPTIDE1{I.C.T.K.S.D.P.A.I.C.R.[dP].P}$PEPTIDE1,PEPTIDE1,2:R3-10:R3|PEPTIDE1,PEPTIDE1,1:R1-13:R2$$$V2.0) ?
Reply: 42.3

* * *

TARGET OR SYSTEM: Urokinase from human urine (Homo sapiens, UniProt P00749)
TEST DETAILS: Enzymatic assay, urokinase
Where a SMILES comes first, the peptide text is derived from it.
PARAMETER: Urokinase at 100 μM % (%)
Give bare numbers, in %.

Task item: Which value of Urokinase at 100 μM % has been reported for CC[C@H](C)[C@@H]1NC(=O)[C@@H]2CCCN2C(=O)[C@@H]2CCCN2C(=O)[C@H](CC(=O)O)NC(=O)[C@H](CO)NC(=O)[C@H](CCCCN)NC(=O)[C@H]([C@@H](C)O)NC(=O)[C@@H]2CSSC[C@H](NC1=O)C(=O)N[C@@H](CC(=O)O)C(=O)N1CCC[C@@H]1C(=O)N1CCC[C@H]1C(=O)N[C@@H](C1CCCCC1)C(=O)N2 [Ex. 39] (HELM PEPTIDE1{[O=C([C@@H](N[*:1])C1CCCCC1)[*:2]].C.T.K.S.D.P.P.I.C.D.[dP].P}$PEPTIDE1,PEPTIDE1,2:R3-10:R3|PEPTIDE1,PEPTIDE1,1:R1-13:R2$$$V2.0) in the records?
Reply: 2

* * *

TARGET OR SYSTEM: Trypsin, from human pancreas (Homo sapiens, UniProt P07477)
TEST DETAILS: Enzymatic assay, trypsin
CONDITION: at 100 μM
Where a SMILES comes first, the peptide text is derived from it.
PARAMETER: Trypsin at 100 μM % (%)
Numbers only, in %.

Task item: Return Trypsin at 100 μM % measured with Trypsin, from human pancreas (Homo sapiens, UniProt P07477) given this compound: CCCC[C@@H]1NC(=O)[C@H]([C@@H](C)O)NC(=O)[C@@H]2CSSC[C@H](NC(=O)[C@H]([C@@H](C)CC)NC(=O)[C@@H]3CCCN3C(=O)[C@@H]3CCCN3C(=O)[C@H](CC(=O)O)NC(=O)[C@H](CO)NC1=O)C(=O)N[C@@H](Cc1ccc(O)cc1)C(=O)N1CCC[C@@H]1C(=O)N1CCC[C@H]1C(=O)N[C@@H](Cc1ccccc1)C(=O)N2 [Ex. 23] (HELM PEPTIDE1{F.C.T.[Nle].S.D.P.P.I.C.Y.[dP].P}$PEPTIDE1,PEPTIDE1,2:R3-10:R3|PEPTIDE1,PEPTIDE1,1:R1-13:R2$$$V2.0)
Reply: 90

* * *

TARGET OR SYSTEM: CathepsinG, from human neutrophils (Homo sapiens, UniProt P08311)
Sequence (P08311 21-244): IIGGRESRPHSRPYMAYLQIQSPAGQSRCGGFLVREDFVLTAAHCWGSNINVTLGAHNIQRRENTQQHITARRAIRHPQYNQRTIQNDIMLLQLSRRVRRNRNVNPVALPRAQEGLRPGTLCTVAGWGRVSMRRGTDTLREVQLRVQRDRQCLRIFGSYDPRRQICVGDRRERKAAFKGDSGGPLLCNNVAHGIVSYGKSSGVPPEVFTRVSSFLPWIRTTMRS
TEST DETAILS: Enzymatic assay, cathepsin G
CONDITION: Cathepsin G IC50
Where a SMILES comes first, the peptide text is derived from it.
PARAMETER: IC50 (nM)
Numbers only, in nM.

COMPOUND	PARAMETER	UNIT OF MEASUREMENT	RECORDED MEASUREMENT
CC[C@H](C)[C@@H]1NC(=O)[C@@H]2CCCN2C(=O)[C@@H]2CCCN2C(=O)[C@H](CC(=O)O)NC(=O)[C@H](CO)NC(=O)[C@H](CCCCN)NC(=O)[C@H]([C@@H](C)O)NC(=O)[C@@H]2CSSC[C@H](NC1=O)C(=O)N[C@@H]([C@@H](C)O)C(=O)N1CCC[C@@H]1C(=O)N1CCC[C@H]1C(=O)N[C@@H](CC1CCCCC1)C(=O)N2 [Ex. 34] (HELM PEPTIDE1{[Cha].C.T.K.S.D.P.P.I.C.T.[dP].P}$PEPTIDE1,PEPTIDE1,2:R3-10:R3|PEPTIDE1,PEPTIDE1,1:R1-13:R2$$$V2.0)	IC50	nM	56
CC(C)C[C@@H]1NC(=O)[C@H](CO)NC(=O)[C@H](CCCCN)NC(=O)[C@H]([C@@H](C)O)NC(=O)[C@@H]2CSSC[C@H](NC(=O)[C@H](CCCCN)NC(=O)[C@@H]3CCCN3C(=O)[C@@H]3CCCN3C1=O)C(=O)N[C@@H](CCCNC(=N)N)C(=O)N1CCC[C@@H]1C(=O)N1CCC[C@H]1C(=O)N[C@@H](Cc1ccc(O)cc1)C(=O)N2 [Ex. 194] (HELM PEPTIDE1{Y.C.T.K.S.L.P.P.K.C.R.[dP].P}$PEPTIDE1,PEPTIDE1,2:R3-10:R3|PEPTIDE1,PEPTIDE1,1:R1-13:R2$$$V2.0)	IC50	nM	1570

Moving on to the next compound.
Task item: Would you kindly share the measured IC50 for CC[C@H](C)[C@@H]1NC(=O)[C@@H]2CCCN2C(=O)[C@@H]2CCCN2C(=O)[C@H](CC(=O)O)NC(=O)[C@H](CO)NC(=O)[C@H](CCCCN)NC(=O)[C@H]([C@@H](C)O)NC(=O)[C@@H]2CSSC[C@H](NC1=O)C(=O)N[C@@H](CO)C(=O)N1CCC[C@@H]1C(=O)N1CCC[C@H]1C(=O)N[C@@H](C1CCCCC1)C(=O)N2 [Ex. 11] (HELM PEPTIDE1{[O=C([C@@H](N[*:1])C1CCCCC1)[*:2]].C.T.K.S.D.P.P.I.C.S.[dP].P}$PEPTIDE1,PEPTIDE1,2:R3-10:R3|PEPTIDE1,PEPTIDE1,1:R1-13:R2$$$V2.0) ?
Reply: 95

* * *

TARGET OR SYSTEM: UniProt P07477
TEST DETAILS: Enzymatic assay, trypsin
CONDITION: at 100 μM
Where a SMILES comes first, the peptide text is derived from it.
Kindly state Trypsin at 100 μM % for each of the entries shown.

Previously resolved entries follow.
COMPOUND	TARGET OR SYSTEM	Trypsin at 100 μM %
CCCC[C@@H]1NC(=O)[C@@H]2CCCN2C(=O)[C@@H]2CCCN2C(=O)[C@H](CC(=O)O)NC(=O)[C@H](CO)NC(=O)[C@H](CCCCN)NC(=O)[C@H]([C@@H](C)O)NC(=O)[C@@H]2CSSC[C@H](NC1=O)C(=O)N[C@@H](Cc1ccc(O)cc1)C(=O)N1CCC[C@@H]1C(=O)N1CCC[C@H]1C(=O)N[C@@H](C1CCCCC1)C(=O)N2 [Ex. 63] (HELM PEPTIDE1{[O=C([C@@H](N[*:1])C1CCCCC1)[*:2]].C.T.K.S.D.P.P.[Nle].C.Y.[dP].P}$PEPTIDE1,PEPTIDE1,2:R3-10:R3|PEPTIDE1,PEPTIDE1,1:R1-13:R2$$$V2.0)	UniProt P07477	96%
CCCC[C@@H]1NC(=O)[C@H]([C@@H](C)O)NC(=O)[C@@H]2CSSC[C@H](NC(=O)[C@H]([C@@H](C)CC)NC(=O)[C@@H]3CCCN3C(=O)[C@@H]3CCCN3C(=O)[C@H](CC(=O)O)NC(=O)[C@H](CO)NC1=O)C(=O)N[C@@H](CCCNC(=N)N)C(=O)N1CCC[C@@H]1C(=O)N1CCC[C@H]1C(=O)N[C@@H]([C@@H](C)CC)C(=O)N2 [Ex. 59] (HELM PEPTIDE1{I.C.T.[Nle].S.D.P.P.I.C.R.[dP].P}$PEPTIDE1,PEPTIDE1,2:R3-10:R3|PEPTIDE1,PEPTIDE1,1:R1-13:R2$$$V2.0)	UniProt P07477	84%

Could you tell me Trypsin at 100 μM % for each of these compounds? They are listed below.
1. CC[C@H](C)[C@@H]1NC(=O)[C@@H]2CCCN2C(=O)[C@H]2CCCN2C(=O)[C@H](CCCNC(=N)N)NC(=O)[C@@H]2CSSC[C@H](NC1=O)C(=O)N[C@@H]([C@@H](C)O)C(=O)N[C@@H](CCCCN)C(=O)N[C@@H](CO)C(=O)N[C@@H](CC(=O)O)C(=O)N1CCC[C@H]1C(=O)N1CCC[C@H]1C(=O)N[C@@H](CC1CCCCC1)C(=O)N2 [Ex. 58] (HELM PEPTIDE1{I.C.T.K.S.D.P.P.[Cha].C.R.[dP].P}$PEPTIDE1,PEPTIDE1,2:R3-10:R3|PEPTIDE1,PEPTIDE1,1:R1-13:R2$$$V2.0)
2. CC[C@H](C)[C@@H]1NC(=O)[C@@H]2CCCN2C(=O)[C@@H]2CCCN2C(=O)[C@H](CC(=O)O)NC(=O)[C@H](CN)NC(=O)[C@H](CCCCN)NC(=O)[C@H]([C@@H](C)O)NC(=O)[C@@H]2CSSC[C@H](NC1=O)C(=O)N[C@@H](CO)C(=O)N1CCC[C@@H]1C(=O)N1CCC[C@H]1C(=O)N[C@@H](Cc1ccccc1)C(=O)N2 [Ex. 25] (HELM PEPTIDE1{F.C.T.K.[NC[C@H](N[*:1])C(=O)[*:2]].D.P.P.I.C.S.[dP].P}$PEPTIDE1,PEPTIDE1,2:R3-10:R3|PEPTIDE1,PEPTIDE1,1:R1-13:R2$$$V2.0)

Reply:
1: 97%; 2: 89.3%

Origin of the recorded values: patent US8658604B2
